Origin of measurements: patent US20250026849A1

TARGET: T1, BCMA (Homo sapiens (Human), UniProt Q02223 1-54, limits assumed)
T1 sequence: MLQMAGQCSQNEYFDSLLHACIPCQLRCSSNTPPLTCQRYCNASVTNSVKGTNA
METHOD DESCRIPTION: ELISA, format not described
Set-up: unit not given here
Documented ELISA_avg across a set of binders
I'd appreciate a reply containing only the number, no unit.

# annotated cases, reported ELISA_avg shown
> print(dat)
                                     binder  measurement.kind  number
1  D-domain SEQ ID NO: 137 (designed binder) MGSWVEFDRRLIAIWVRLWALGGSEAELAAFEKEIAAFESELQAYKGKGNPEVEFLRSDAAMIREHLQAYRHN         ELISA_avg    5.77
2  D-domain SEQ ID NO: 139 (designed binder) MGSWSEFSTRLSAIYVRLWALGGSEAELAAFEKEIAAFESELQAYKGKGNPEVEYLRNKAASIRKTLQAYRHN         ELISA_avg    5.35
3  D-domain SEQ ID NO: 85 (designed binder) MGSWNEFEDRLSAISARLSALGGSEAELAAFEKEIAAFESELQAYKGKGNPEVEELRYSAALIRVMLQAYRHN         ELISA_avg    4.09
4  D-domain SEQ ID NO: 221 (designed binder) MGSWSEFDGRLGAIWDRLYALGGSEAELAAFEKEIAAFESELQAYKGKGNPEVEYLRDRAAQIREFLQAYRHN         ELISA_avg      10
5  D-domain SEQ ID NO: 185 (designed binder) MGSWVEFWDRLGAIRERLQALGGSEAELAAFEKEIAAFESELQAYKGKGNPEVEKLRYTAAAIRHYLQAYRHN         ELISA_avg    5.22
6  D-domain SEQ ID NO: 306 (designed binder) MGSWQYFKYGLAIIKIKLEALGGSEAELADFEAWIATFEKQLQHYKGKGNPEVEALRKEAAAIRDELQAYRHN         ELISA_avg    10.3

ELISA_avg for D-domain SEQ ID NO: 136 (designed binder) MGSWIEFDRRLIAIWIRLWALGGSEAELAAFEKEIAAFESELQAYKGKGNPEVESLRSDAADIRQKLQAYRHN ?
9.45

ELISA_avg for D-domain SEQ ID NO: 176 (designed binder) MGSWYEFDTRLGAIRNRLGALGGSEAELAAFEKEIAAFESELQAYKGKGNPEVEWLRFQAAYIRFLLQAYRHN ?
13.9

ELISA_avg for D-domain SEQ ID NO: 60 (designed binder) MGSWSEFAWRLEAIHQRLSALGGSEAELAAFEKEIAAFESELQAYKGKGNPEVESLRLFAAQIRENLQAYRHN ?
18

ELISA_avg for D-domain SEQ ID NO: 166 (designed binder) MGSWMEFDERLWAIKKRLRALGGSEAELAAFEKEIAAFESELQAYKGKGNPEVEFLRHQAAYIRMLLQAYRHN ?
9.53

ELISA_avg for D-domain SEQ ID NO: 173 (designed binder) MGSWYEFWLRLSAISYRLQALGGSEAELAAFEKEIAAFESELQAYKGKGNPEVEWLRKEAAEIRSWLQAYRHN ?
14.5

ELISA_avg for D-domain SEQ ID NO: 178 (designed binder) MGSWFEFDRRLKAIDRRLMALGGSEAELAAFEKEIAAFESELQAYKGKGNPEVEWLRMQAAIIRNYLQAYRHN ?
6.16

ELISA_avg for D-domain SEQ ID NO: 84 (designed binder) MGSWVEFHNRLSAISDRLGALGGSEAELAAFEKEIAAFESELQAYKGKGNPEVEELRYSAALIRVMLQAYRHN ?
7.36
